The measurements presented in this section are drawn from patent US20230357364A1.

# Study System: human insulin (human, UniProt P01308 25-54; P01308 90-110)
# Sequence (P01308 25-54 limits assumed, chain 1 of 2): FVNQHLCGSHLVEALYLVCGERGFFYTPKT
# Sequence (P01308 90-110 limits assumed, chain 2 of 2): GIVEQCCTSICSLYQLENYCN
# Method Summary: polyreactivity ELISA

- Binder: "L6.P4A3.7 (antibody, V domains shown) VH: QVQLVQSGAEVKKPGSSVKVSCKASGGIFSSSAISWVRQAPGQGLEWMGGIIPILDYTNYAQKFQGRVTITADKSTSTAFMELSSLRSEDTAVYYCALRNQWDLLVYWGQGTLVTVSS VL: EIVLTQSPGTLSLSPGERATLSCRASQEVSSSYLAWYQQKPGQAPRLLIYGAESRATGIPDRFSGSGSGTDFTLTISRLEPEDFAVYYCQHYGSSAWTFGQGTKLEIK"
  binding result: "no binding"
- Binder: "L6.P4A3.b (antibody, V domains shown) VH: QVQLVQSGAEVKKPGSSVKVSCKAPGGTFSSSAISWVRQAPGQGLEWMGGIIPILDITTYAQKFQGRVTITADKSTSTAFMELSSLRSEDTAVYYCALRNQWDLLIYWGQGTLVTVSS VL: EIVLTQSPGTLSLSPGERATLSCRASQSVSSHYLAWYQQKPGQAPRLLIYGASSRYTGIPDRFSGSGSGTDFTLTISRLEPEDFAVYYCQHYGSSHWTFGQGTKLEIK"
  binding result: "no binding"
- Binder: "L6.P4A3.5 (antibody, V domains shown) VH: QVQLVQSGAEVKKPGSSVKVSCKAVGGTFSSSAIYWVRQAPGQGLEWMGGIIPILDIANYAQKFQGRVTITADKSTSTAFMELSSLRSEDTAVYYCALRNQWDLVVYWGQGTLVTVSS VL: EIVLTQSPGTLSLSPGERATLSCHASQSVSSSYLAWYQQKPGQAPRLLIYGAESRATGIPDRFSGSGSGTDFTLTISRLEPEDFAVYYCQHYGSSTWTFGQGTKLEIK"
  binding result: "no binding"
